The reported numbers originate from the supplement of paper PMC10567573.

B1: PDZK1 (parent)
chain: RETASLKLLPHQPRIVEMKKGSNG

- Variants of: B1
- RUN_DESCRIPTION: protein stability index of a GFP-peptide fusion (GPS, HEK-293T) (PSI 1-6); higher = more stable;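 note: lentivirally expressed fusions sorted by FACS into six bins by GFP to DsRed ratio, PSI derived from sequencing read proportions per bin multiplied by bin number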
- RECORDED_CONDITIONS: c terminus: a fixed tail appended
MEASURED_PROPERTY: protein stability index
Answer as a number with no unit attached.

Solved cases below.
I15Y: 4.01
G24P: 4.01
S22K: 4.03

### Prompt Using the record for K20P , report its protein stability index.
### Response 3.99
